- System tested: T1, CD27 protein (His-tagged, Sino Biological Inc. 10039-H08B1) (human, UniProt P26842 20-192)
- T1 construct: bought; coated onto ELISA plates; also called human CD27; recombinant protein; not shown: His tag
- T1 sequence (looked up): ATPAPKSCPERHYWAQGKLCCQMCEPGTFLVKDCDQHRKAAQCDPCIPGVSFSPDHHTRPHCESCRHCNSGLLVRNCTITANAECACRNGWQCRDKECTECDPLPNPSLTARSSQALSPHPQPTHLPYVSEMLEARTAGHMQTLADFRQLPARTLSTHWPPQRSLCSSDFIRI
- Protocol description: ELISA on coated His-tagged CD27; further: test concentration or dose not given here
Known ELISA [abs. corr.] of a selection of binders
Write your answer as a measured quantity: the number, then the unit.

Answered examples (2):
Binder	ELISA [abs. corr.]
P018.S.09.A.E05 (antibody, V domains shown, V regions on human Ig constant parts; also called AB27_155) VH: QSLEESGGRLVTPGTPLTLTCTVSGIDLSRYDMSWVRQAPGKGLEWIGFIGASGSTYYASWVKGRFTISKTSTTVDLKITSPTTEDTATYFCAREETDSRGYYYSLWGPGTPVTVSS VL: ALVMTQTPASVEAAVGGTVTINCQASQSISDLLGWYQQKPGQPPKLLIYDASDLASGVPSRFSGSGSGTEFTLTISGVQSDDAATYYCQQGYSINNVDNAFGGGTEVVVK	3.52 abs. corr.
P018.S.10.A.B01 (antibody, V domains shown, V regions on human Ig constant parts; also called AB27_166) VH: QSLEESGGRLVTPGTPLTLTCTASGFSLSSYYMSWVRQAPGKGLEWIGIIDRAGTTYYATWAKGRFTISRTSTTVDLKMTSPTTEDTGTYFCARNFIYGVGTYYGSDLWGQGTLVTVSS VL: DVVMTQTPASVSDPVGGTVTIKCQASESISRRLAWYQQKPGQPPKLLIYGASDLASGVPSRFSGSGSGTEFTLTISGVQSDDAATYYCQDTDYGSGHLGAFGGGTEVVVK	3.19 abs. corr.

Pending binder:
Looking up P018.S.05.A.A04 (antibody, V domains shown, V regions on human Ig constant parts; also called AB27_81) VH: QEQLVESGGDLVKPGASLTLTCTASGIDFSSSYYMSWVRQAPGKGLEWIACIDTVDDYTYYASWAKGRFTISKTSSTTVSLQMTSLTAADTATYFCARERIDNNTDCFDLWGPGTLVTISS VL: AQVLTQTPSPVSAAVGGTVTISCQSSQSVVSKNRLAWYQQKPGQPPKLLIWLASKLASGVPSRFRGSGSGTQFTLTISGVQSDDAATYYCQGYYSGAIYAFGGGTDVVVK , I found its ELISA [abs. corr.] recorded as 3.3 abs. corr.
